Molecular target: T1, Cynomolgus monkey BCMA (cynomolgus monkey)
T1 construct: Soluble analyte in SPR; also called cyBCMA; Cyno BCMA
Experiment: SPR, IgG immobilised, cyno BCMA analyte
Protocol: All experiments were performed on a Bio-Rad Proteon XPR36 surface Plasmon resonance biosensor (Bio-Rad, Hercules, Calif.). […] The analysis temperature for the immobilization was 25° C. and the running buffer was HBS-T+(10 mM HEPES, 150 mM NaCl, 0.05% Tween-20, pH 7.4). […] The analysis temperature for the BCMA binding analysis was 37° C. or 25° C. in a running buffer of HBS-T+, supplemented with 1 mg/mL BSA. […] Immediately after the 50 nM BCMA injection, dissociation was monitored for 2 hours. […]
pKd: −log10 of the molar value.

- BINDER: "COMBO_Rd4_0.6nM_C02 (antibody, V domains shown, IgG) VH: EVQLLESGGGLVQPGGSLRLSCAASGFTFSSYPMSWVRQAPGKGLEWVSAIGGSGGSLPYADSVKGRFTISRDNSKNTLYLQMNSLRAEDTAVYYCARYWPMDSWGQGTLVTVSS VL: EIVLTQSPGTLSLSPGERATLSCRASIAVSSTYLAWYQQKPGQAPRLLMYDASIRATGIPDRFSGSGSGTDFTLTISRLEPEDFAVYYCQQYMVWPLTFGQGTKVEIK"
  pKd: 9.79
- BINDER: "COMBO_Rd4_0.6nM_C09 (antibody, V domains shown, IgG) VH: EVQLLESGGGLVQPGGSLRLSCAASGFTFSSYPMSWVRQAPGKGLEWVSAIGGSGGSLPYADSVKGRFTISRDNSKNTLYLQMNSLRAEDTAVYYCARYWPMDIWGQGTLVTVSS VL: EIVLTQSPGTLSLSPGERATLSCRASQSVSSTYLAWYQQKPGQAPRLLMYDASIRATGIPDRFSGSGSGTDFTLTISRLEPEDFAVYYCQQYQEWPLTFGQGTKVEIK"
  pKd: 10.04
- BINDER: "A02_Rd4_6nM_C05 (antibody, V domains shown, IgG) VH: EVQLLESGGGLVQPGGSLRLSCAASGFTFSSYAMNWVRQAPGKGLEWVSAIFASGGSTYYADSVKGRFTISRDNSKNTLYLQMNSLRAEDTAVYYCARYWPMTPWGQGTLVTVSS VL: EIVLTQSPGTLSLSPGERATLSCRASQSVSSSYLAWYQQKPGQAPRLLMYDASIRATGIPDRFSGSGSGTDFTLTISRLEPEDFAVYYCQQYQRWPLTFGQGTKVEIK"
  pKd: 9.02
